Ref: EPA's ToxValDB 9.5

Test system: Mus musculus
Conditions: acute; oral; gavage
value.kind: LD50 (mg/kg)
State the answer as a number, implicitly in mg/kg.

Below, 2 compounds whose answers are already recorded.
{"compound": "CCCCC(CC)COC(=O)CCCCCCCCC(=O)OCC(CC)CCCC (stereo not given) [Bis(2-ethylhexyl) decanedioate]", "value.kind": "LD50", "reported": 9500}
{"compound": "CC(C)(N)CO", "value.kind": "LD50", "reported": 3350}

We next turn to a different compound, shown below.
Any idea what LD50 was measured for CCCCCCCCCCCCCCCCCCN ?
1000

----------
System: Rattus norvegicus
Conditions: acute; oral; gavage; Wistar
Known LD50 of a selection of compounds

{"compound": "CCCCCCCCCCCCCCCCCC(=O)OC[C@@H](O)[C@H]1OC[C@H](O)[C@H]1O [Anhydrosorbitol stearate]", "system": "Rattus norvegicus", "reported": "> 15900 mg/kg"}

Any idea what LD50 was measured for O=S(=O)([O-])c1ccc(N=Nc2c(O)ccc3cc(S(=O)(=O)[O-])ccc23)cc1.[Na+].[Na+] ?
> 2000 mg/kg

Similarly, CCCCCCCC/C=C\CCCCCCCC(=O)OC[C@@H](O)[C@H]1OC[C@H](O)[C@H]1O [Sorbitan, mono-(9Z)-9-octadecenoate] ?
> 39800 mg/kg

----------
Tested on: Rattus norvegicus
Conditions: acute; oral; gavage; Sprague-Dawley
value.kind: LD50

{"molecule": "CC(C)C(=O)OCC(C)(C)C(OC(=O)c1ccccc1C(=O)OCc1ccccc1)C(C)C (stereo not drawn)", "system": "Rattus norvegicus", "reported": "> 18500 mg/kg"}
{"molecule": "CC(C)(c1ccc(Oc2ccc3c(c2)C(=O)OC3=O)cc1)c1ccc(Oc2ccc3c(c2)C(=O)OC3=O)cc1 [4,4'-(4,4'-Isopropylidenediphenoxy)bisphthalic dianhydride]", "system": "Rattus norvegicus", "reported": "> 5000 mg/kg"}

Any idea what LD50 was measured for CCCCCCCCCCCCCCC1CO1 (stereo not drawn) [1,2-Epoxyhexadecane] ?
> 5000 mg/kg

----------
Test system: Rattus norvegicus
Conditions: acute; oral; gavage; Sprague-Dawley
value.kind: LD50

Below, 3 compounds whose answers are already recorded.
{"compound": "COC(=O)C1C(C=C(Cl)Cl)C1(C)C (centres undefined)", "system": "Rattus norvegicus", "reported": "> 5000 mg/kg"}
{"compound": "Cc1ccc(OP(=O)(Oc2ccc(C)cc2C)Oc2ccc(C)cc2C)c(C)c1 [Trixylyl phosphate]", "system": "Rattus norvegicus", "reported": "> 20000 mg/kg"}
{"compound": "CCCCCCCCCCCCCCCCN(C)C", "system": "Rattus norvegicus", "reported": "> 2000 mg/kg"}

We next turn to a different compound, shown below.
Any idea what LD50 was measured for CCCCCCCCCCCCOCCOCCOS(=O)(=O)[O-].[Na+] [Diethylene glycol monolauryl ether sulfate sodium salt] ?
> 5000 mg/kg

----------
Known LD50 of a selection of compounds
Test system: Rattus norvegicus
Details: acute; oral; gavage

{"compound": "CCCCCCC(C)OC(=O)CCCCC(=O)OC(C)CCCCCC (stereo not drawn)", "value.kind": "LD50", "reported": "> 64000 mg/kg"}
{"compound": "CCCCC(CC)COC(=O)c1ccc(C(=O)OCC(CC)CCCC)c(C(=O)OCC(CC)CCCC)c1 (stereo not drawn) [Tris(2-ethylhexyl) trimellitate]", "value.kind": "LD50", "reported": "> 3200 mg/kg"}

We next turn to a different compound, shown below.
Any idea what LD50 was measured for CCCCCCCC/C=C\CCCCCCCC(=O)OC[C@@H](O)[C@H]1OC[C@H](O)[C@H]1O [Sorbitan, mono-(9Z)-9-octadecenoate] ?
> 39800 mg/kg
